Hey, just so you know, these numbers are from paper PMC12136037.

System: ~100 representative kinases
Test: DSF 100 kinase selectivity screen
Type: binding
Conditions: number of proteins of the DSF panel with dTm >5K
MEASURE: # >5K
Response field accepts a number only; no unit should be typed.

Example compounds with recorded # >5K:
>  <COMPOUND>
O=C(Nc1cc(F)cc(Br)c1)C1(C(=O)Nc2cccc(-c3c[nH]c4ncnc(N5CCOCC5)c34)c2)CC1 [Compound 27]

>  <# >5K>
9

$$$$
>  <COMPOUND>
O=C(Nc1cccc(-c2c[nH]c3ncnc(N4CCOCC4)c23)c1)C1(C(=O)Nc2ccc(F)c(Br)c2)CC1 [Compound 19]

>  <# >5K>
32

$$$$
>  <COMPOUND>
CCNc1nc(Nc2cc(F)c(C(=O)N3CCOCC3)cc2OC)ncc1C(F)(F)F [GNE-7915]

>  <# >5K>
3

$$$$
>  <COMPOUND>
COc1ccc(NC(=O)C2(C(=O)Nc3cccc(-c4c[nH]c5ncnc(N6CCOCC6)c45)c3)CC2)cc1 [Compound 16]

>  <# >5K>
10

$$$$
>  <COMPOUND>
O=C(Nc1cccc(-c2c[nH]c3ncnc(N4CCOCC4)c23)c1)C1(C(=O)Nc2cccc3c2CCC3)CC1 [Compound 11]

>  <# >5K>
16

$$$$
>  <COMPOUND>
COc1cc(NC(=O)C2(C(=O)Nc3cccc(-c4c[nH]c5ncnc(N6CCOCC6)c45)c3)CC2)ccc1F [Compound 21]

>  <# >5K>
28

$$$$

Shift focus to the following entry.
# compound O=C(Nc1cccc(-c2c[nH]c3ncnc(N4CCOCC4)c23)c1)C1(C(=O)Nc2cc(Br)c(F)cc2F)CC1 [Compound 25] ; its # >5K = 10
